Origin of values: patent US20100279930A1

Molecular target: human Y4 receptor (human, UniProt P50391 1-375)
Sequence (P50391 whole entry): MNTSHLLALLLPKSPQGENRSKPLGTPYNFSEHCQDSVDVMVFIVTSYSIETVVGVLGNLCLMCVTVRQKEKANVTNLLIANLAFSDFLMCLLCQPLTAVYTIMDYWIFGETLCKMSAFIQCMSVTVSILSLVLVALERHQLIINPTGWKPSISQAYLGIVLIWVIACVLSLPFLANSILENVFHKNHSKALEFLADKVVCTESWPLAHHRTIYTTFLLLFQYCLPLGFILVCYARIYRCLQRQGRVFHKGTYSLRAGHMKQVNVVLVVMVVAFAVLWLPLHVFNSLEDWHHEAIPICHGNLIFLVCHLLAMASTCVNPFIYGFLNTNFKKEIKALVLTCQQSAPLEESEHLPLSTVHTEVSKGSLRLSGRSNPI
Assay: 125I-PP displacement
parameter_measured: IC50 (nM)

PLEPVYPGDNATPEQMARYAADLRRYINKLTRPRY [4057334]	0.082
PAPLEPEYPGDDATPQQLAKYAAELRRYINKLTRPRY [4057441]	0.088
HAPLEPVYPGDNATPEQMARYAADLRRYINKLTRPRY [4057338]	0.078
PLEPEYPGDDATPQQMAHYAAELRRYINKLTRPRY [4057138]	0.086
AAPLEPEYPGDDATPQQMAKYAADLRRYINKLTRPRY [4057259]	0.083
